The values you see were collected from the supplement of paper PMC8728848.

# TARGET_OF_ASSAY: Neu5Ac(a2-6)Gal(b1-4)GlcNAc(b1-3)Gal(b1-4)GlcNAc(b1-3)GalNAc
# PROTOCOL_DETAILS: glycan array binding signal (z-score within array); higher = stronger binding
# TEST_SETTINGS: glycan notation: IUPAC condensed, linker removed
The entries come from a sample that favours the strongest signals as a whole.
ASSAY_READOUT: glycan array binding signal (z-score)
I'd appreciate a reply containing only the number, no unit.

I am curious: what glycan array binding signal (z-score) value has been reported for TAL6-4LysM (Trichoderma atroviride) (protein) AADSIPSISPTGIITPTPTQSGMVSNCNKFYDVHSNDGCSAIASSQHVDLSSLYKWNPAIKTDCSGLQASVYVCIGILTTSMSTTSKLPTTTSKPSTTSKPPTGITTPTPTQSGMVKNCNKFYDVHSGDGCSAIASSQKVNLSSFYLWNPAVKTDCSGLQASVFVCIGTLTTSMSTTTSKLPTTTSKPSTTSKPPTGIITPTPTQNGMVKNCNKFYDVHSGDGCSAIASSQKVNLSSFYLWNPAVKTDCSGLQASVFVCVGTATTTTAAGITTPTPTQSGMVSGCNKFYDVHAGDGCSAIASSQKIALSSLYKWNPAVKTDCSGLQASVYICIGVGNAAAARVTGALEQKLISEEDLNSAVDHHHHHH ?
3.9
